Conditions used: 308.15 K; 100.7 kPa; Liquid; Frequency=3 MHz; Sing-around technique in a fixed-path interferometer

>  <Compound>
CCCCn1cc[n+](C)c1.F[P-](F)(F)(F)(F)F [1-butyl-3-methylimidazolium hexafluorophosphate]

>  <speed of sound (m/s)>
1418.4

$$$$
>  <Compound>
CCCCCCn1cc[n+](C)c1.F[P-](F)(F)(F)(F)F [1-hexyl-3-methylimidazolium hexafluorophosphate]

>  <speed of sound (m/s)>
1399

$$$$
>  <Compound>
C1CCOC1 [tetrahydrofuran]

>  <speed of sound (m/s)>
1232.9

$$$$
>  <Compound>
CCCCCCCC[n+]1ccn(C)c1.F[P-](F)(F)(F)(F)F [1-octyl-3-methylimidazolium hexafluorophosphate]

>  <speed of sound (m/s)>
1379

$$$$
